Organism: Cavia porcellus
Assay: Bronchodilator activity against histamine-induced spasm in guinea pig
Format: functional
Settings: read-out: ID50 (the source's name)
Mark true (1) for ED50 under 20 µmol/kg, false (0) if at or over.

Q) Quick check: does Cl.O=c1c2c(nc3ccccn13)CCC2 have ED50 under 20 µmol/kg?
A) true (1)

Q) Dear reviewer, please state whether O=c1nc2n(c3c1CCCCC3)CCC2 has ED50 strictly beneath 20 µmol/kg.
A) false (0)

Q) Please check: ED50 for O=C(O)c1ccc2nc3n(c(=O)c2c1)CCCCC3 , strictly under 20 µmol/kg or not?
A) false (0)

Q) Report whether reported ED50 is lower than 20 µmol/kg (strictly) for COC(=O)c1ccc2nc3n(c(=O)c2c1)CCC3
A) false (0)

Q) Confirm or reject: ED50 of O=c1c2c(nc3n1CCC3)CCCCCC2 lies strictly below 20 µmol/kg
A) false (0)

Q) Input Cc1cccc2nc3c(c(=O)n12)CCC3 ; condition: ED50 strictly below 20 µmol/kg. Does it hold?
A) true (1)

Q) Input O=c1c2c(nc3n1CCCC3)CCCC2 ; condition: ED50 strictly below 20 µmol/kg. Does it hold?
A) false (0)

Q) Report whether reported ED50 is lower than 20 µmol/kg (strictly) for COC(=O)c1ccc2nc3n(c(=O)c2c1)CCCC3
A) true (1)

Q) Is ED50 strictly under 20 µmol/kg for the entry CC1CCCc2nc3ccccc3c(=O)n21 (centres undefined) ?
A) false (0)

Q) Input Cc1ccc2nc3n(c(=O)c2c1)CCC3 ; condition: ED50 strictly below 20 µmol/kg. Does it hold?
A) false (0)

Q) In plain terms, does Cc1cccn2c(=O)c3c(nc12)CCC3 come in under 20 µmol/kg for ED50?
A) true (1)

Q) is_below(ED50, 20 µmol/kg) for O=C(O)c1ccc2c(=O)n3c(nc2c1)CCCC3 ?
A) false (0)

Q) Please state whether ED50 is below 20 µmol/kg for CCc1c(C)nc2cccc(C)n2c1=O
A) true (1)

====

Species: Cavia porcellus
Assay: Bronchodilator activity against serotonin-induced spasm in guinea pig
Assay type: functional
Details: read-out: ID50 (the source's name)
measured-attribute: log10 of ED50 (log10 of the value in µmol/kg)
Note: values are log10 of ED50 expressed in µmol/kg.

Q) For O=c1c2c(nc3n1CCCCC3)CCCC2 , write its log10 of ED50.
A) 0.48

Q) For the compound O=c1c2c(nc3n1CCC3)CCCCC2 , give its measured log10 of ED50 value.
A) 1.52

Q) Report log10 of ED50 for O=c1c2c(nc3n1CCCC3)CCC2
A) 1.38

Q) Input Cc1ccn2c(=O)c3c(nc2c1)CCCC3 , output reported log10 of ED50.
A) 1.34

Q) Please supply the value of reported log10 of ED50 for the item CC1CCc2nc3c(c(=O)n2C1)CCC3 (stereo unspecified)
A) 1.60

Q) Retrieve log10 of ED50 measured for Cc1ccn2c(=O)c3c(nc2c1)CCC3 and print it.
A) 1.35

Q) Recall and state the measured log10 of ED50 for Cc1ccc2nc3n(c(=O)c2c1)CCCCC3 .
A) 1.65

Q) Input O=c1c2ccccc2nc2n1CCC2 , output reported log10 of ED50.
A) 1.33

Q) Using the record for CCOC(=O)c1c[n+](C)c2n(c1=O)C(C)CCC2 (stereo unspecified) [RIMAZOLIUM METILSULFATE] , state its measured log10 of ED50.
A) 1.15

Q) Write down log10 of ED50 measured for item O=c1c2c(nc3ccccn13)CCCCCC2
A) 1.69

Q) // fetch log10 of ED50 given entry Cc1cccc2nc3c(c(=O)n12)CCC3
A) 0.63

Q) Please supply the value of reported log10 of ED50 for the item CCc1c(C)nc2ccccn2c1=O.Cl
A) 1.08

Q) Name the recorded log10 of ED50 of the compound listed here: O=c1c2cc3c(cc2nc2n1CCCCC2)OCO3
A) 1.12

Q) Specify log10 of ED50 for CC1CCCc2nc3c(c(=O)n21)CCC3 (stereo unspecified) and stop.
A) 1.14

Q) Give a short answer stating reported log10 of ED50 for Cc1cccc2nc3c(c(=O)n12)CCCC3 .
A) 0.79

Q) Tell me measured log10 of ED50 for CC1CCc2nc3c(c(=O)n21)CCCC3 (stereo unspecified) please.
A) 1.67

Q) Write down log10 of ED50 measured for item Cc1ccc2nc3c(c(=O)n2c1)CCCC3
A) 1.31

Q) For the compound CC1CCCn2c1nc1c(c2=O)CCCC1 (stereo unspecified) , give its reported log10 of ED50.
A) 1.56

Q) Tell me measured log10 of ED50 for CC1CCn2c(nc3c(c2=O)CCC3)C1 (stereo unspecified) please.
A) 1.35

Q) Kindly indicate its recorded log10 of ED50. Item: O=c1c2c(nc3n1CCC3)CCC2
A) 1.92

====

Organism: Cavia porcellus
Assay: Bronchodilator activity against histamine-induced spasm in guinea pig
Assay type: functional
Conditions: read-out: ID50 (the source's name)
measured-attribute: ED50 (µmol/kg)
I only need the number, in µmol/kg, no unit after it.

Q) Read the entry O=c1c2ccccc2nc2n1CCCC2 and write its reported ED50.
A) 11.1

Q) For the compound O=c1c2c(nc3n1CCCCC3)CCCCCC2 , give its reported ED50.
A) 33

Q) # return recorded ED50 for entry CC1CCCc2nc3c(c(=O)n21)CCCC3 (centres undefined)
A) 24.7

Q) Indicate its recorded ED50; the compound in question is Cc1ccn2c(=O)c3c(nc2c1)CCCC3
A) 20.4

Q) Tell us which ED50 value is on record for O=C(O)c1ccc2nc3n(c(=O)c2c1)CCC3
A) 215

Q) Answer with the recorded ED50 of Cc1ccc2nc3c(c(=O)n2c1)CCCC3 only.
A) 15.6

Q) For O=c1c2c(nc3n1CCCC3)CCC2 , write its ED50.
A) 25.7

Q) Find the measured ED50 of CC1CCCn2c1nc1c(c2=O)CCCC1 (centres undefined) and report it.
A) 19.8

Q) Identify ED50 associated with the compound CC1CCn2c1nc1ccccc1c2=O (centres undefined)
A) 27.3

Q) Read the entry CCOC(=O)c1ccc2c(=O)n3c(nc2c1)CCCC3 and write its reported ED50.
A) 15.1

Q) Report measured ED50; entry is O=c1c2c(nc3n1CCCCCC3)CCCC2
A) 27.1

====

Species: Cavia porcellus
Assay: Bronchodilator activity against serotonin-induced spasm in guinea pig
Assay type: functional
Details: read-out: ID50 (the source's name)
measured-attribute: ED50 (µmol/kg)
# number only, unit µmol/kg dropped from output

Q) Consider the compound CC1CCn2c(nc3c(c2=O)CCCC3)C1 (centres undefined) . State its measured ED50.
A) 39.3

Q) # return recorded ED50 for entry CC1CCc2nc3ccccc3c(=O)n21 (centres undefined)
A) 12.2

Q) Annotate the compound Cc1cccn2c(=O)c3c(nc12)CCCC3 with its measured ED50.
A) 15.6

Q) Give reported ED50 value for Cc1ccc2nc3n(c(=O)c2c1)CCC3
A) 11.3

Q) Provide measured ED50 value, entry: COC(=O)c1ccc2nc3n(c(=O)c2c1)CCCC3
A) 12.3

Q) Look up and report measured ED50 for this entry: O=c1nc2n(c3c1CCCC3)CCCCC2
A) 55.1

Q) Return ED50 for the following compound: CCc1c(C)nc2ccc(C)cn2c1=O
A) 16.6

Q) Name the recorded ED50 of the compound listed here: O=c1nc2n(c3c1CCCC3)CCC2
A) 107

Q) Give recorded ED50. Cl.O=c1c2c(nc3ccccn13)CCCC2
A) 16.7

Q) Annotate the compound CC1CCCn2c1nc1c(c2=O)CCC1 (centres undefined) with its measured ED50.
A) 7.7

Q) Supply ED50 value. Item: CCc1c(C)nc2cccc(C)n2c1=O
A) 9.6

Q) // Input: CCc1c(C)nc2cc(C)ccn2c1=O . Output its ED50 only.
A) 29.7

Q) Return value of ED50 for input COC(=O)c1ccc2nc3n(c(=O)c2c1)CCC3 , no commentary.
A) 11.7

====

Species on record: Homo sapiens
Assay: Compound was tested for Bronchodilator activity against isolated human bronchus contracted by carbachol
Assay type: functional
Conditions: Homo sapiens, Bronchus; read-out: IC50
Give IC50 for every item shown.
Write the number in µM without appending the unit.

Q) Supply recorded IC50 for CCc1c(C)nc2cccc(C)n2c1=O here.
A) 71.8

Q) Annotate the compound Cc1cccn2c(=O)c3c(nc12)CCC3 with its measured IC50.
A) 97.7

====

Species on record: Cavia porcellus
Assay: Bronchodilator activity against serotonin-induced spasm in guinea pig
Type: functional
Conditions: read-out: ID50 (the source's name)
# label = yes (1) if ED50 < 20 µmol/kg else no (0)

Q) Say whether its ED50 is strictly beneath 20 µmol/kg. Entry: O=c1c2c(nc3n1CCCC3)CCCC2
A) no (0)

Q) I wonder whether CCc1c(C)nc2c(C)cccn2c1=O has ED50 below 20 µmol/kg. Can you tell?
A) yes (1)

Q) Lab note: confirm whether the reported ED50 for this compound is below 20 µmol/kg, equality not counting. compound: CC1CCc2nc3c(c(=O)n2C1)CCCC3 (centres undefined)
A) no (0)

Q) Dear colleague, could you confirm whether ED50 of Cl.O=c1c2c(nc3ccccn13)CCC2 falls below 20 µmol/kg? Thanks.
A) yes (1)

Q) Determine whether this compound shows ED50 lower than 20 µmol/kg (ties excluded): O=c1c2c(nc3n1CCC3)CCCC2
A) no (0)

Q) Consider O=c1c2c(nc3n1CCCC3)CCCCC2 . Does its ED50 lie strictly below 20 µmol/kg?
A) yes (1)

Q) Does the reported ED50 of CCc1c(C)nc2n(c1=O)CCC(C)C2 (centres undefined) stay below 20 µmol/kg?
A) yes (1)

Q) State whether 20 µmol/kg exceeds ED50 recorded for O=C(O)c1ccc2nc3n(c(=O)c2c1)CCCC3 .
A) no (0)

Q) Consider Cc1ccc2c(=O)n3c(nc2c1)CCCCC3 . Does its ED50 lie strictly below 20 µmol/kg?
A) no (0)

Q) Answer whether the compound O=c1c2c(nc3n1CCCCC3)CCCCC2 has ED50 strictly less than 20 µmol/kg
A) no (0)

Q) # check: ED50 < 20 µmol/kg for O=c1c2c(nc3n1CCCCCC3)CCCC2
A) no (0)

Q) Identify whether the compound Cc1cccn2c(=O)c3c(nc12)CCC3 records ED50 below 20 µmol/kg.
A) yes (1)

Q) Record CC1CCn2c1nc1ccccc1c2=O (centres undefined) : is its ED50 strictly below 20 µmol/kg?
A) no (0)

Q) Criterion: ED50 strictly below 20 µmol/kg. Is it met by O=c1c2ccccc2nc2n1CCCC2 ?
A) yes (1)

Reference source: ChEMBL document CHEMBL1123826
